- system: Guanine nucleotide-binding protein G(o) subunit alpha (Homo sapiens) (UniProt P09471)
- Sequence (P09471 whole entry, looked up): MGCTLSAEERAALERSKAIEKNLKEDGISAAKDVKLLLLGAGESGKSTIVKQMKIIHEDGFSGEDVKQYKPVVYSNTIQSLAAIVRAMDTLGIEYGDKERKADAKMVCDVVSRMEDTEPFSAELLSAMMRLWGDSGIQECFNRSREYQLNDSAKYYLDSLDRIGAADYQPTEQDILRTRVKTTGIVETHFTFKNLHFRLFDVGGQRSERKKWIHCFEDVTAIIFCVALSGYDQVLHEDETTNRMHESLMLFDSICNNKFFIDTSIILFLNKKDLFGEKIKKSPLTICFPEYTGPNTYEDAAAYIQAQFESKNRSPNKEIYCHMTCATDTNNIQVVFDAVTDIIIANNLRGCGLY
- method_summary: compounds changing RGS8 association with Galphao – biochemical, multiplexed bead flow cytometry, primary screen (AID 1423);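 further: Galphao activated as the GDP aluminium fluoride complex binding bead-coupled RGS8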
- condition_notes: at 10 µM, actives lie on both sides
Out of some 220,000 compounds screened, about 750 (0.34%) were called active. No stated cut-off is given here; in the data, active means response below about 60% or above about 140%; inactive means in between. This excerpt belongs to a sample that is enriched for actives.
Classes used: 1 for active, 0 for inactive

[[record]]
compound = "CC1=CC2=NC(=O)/C(=C/c3coc4ccccc4c3=O)C(=N)N2O1"
label_class = 0

[[record]]
compound = "Cc1noc(C)c1S(=O)(=O)N(C)Cc1ccccc1"
label_class = 0

[[record]]
compound = "COc1ccc(NC(=S)N2CCc3cc(OC)c(OC)cc3C2)cc1"
label_class = 0

[[record]]
compound = "CCCC(=O)N=c1sc2cccc(F)c2n1C"
label_class = 1

[[record]]
compound = "O=Cc1ccc(OCc2cn3ccccc3n2)cc1"
label_class = 0

[[record]]
compound = "COc1cc(/C=C/C(=O)N2c3ccccc3Sc3ccc(C(F)(F)F)cc32)cc(OC)c1OC"
label_class = 0

[[record]]
compound = "Cc1c(C(=O)Nc2ccccc2Cl)oc2ccc(S(=O)(=O)N3CCC4(CC3)OCCO4)cc12"
label_class = 0

[[record]]
compound = "O=C(Nc1nnc(Cc2ccc(Cl)cc2)s1)c1ccncc1"
label_class = 0

[[record]]
compound = "Oc1ccc(N=Nc2nccs2)c(O)c1"
label_class = 1

[[record]]
compound = "CC(C)(C)CN1C(=O)C(=O)NC[C@H]1Cc1cccc2ccccc12"
label_class = 0

[[record]]
compound = "CCOc1ccccc1NC(=O)CCN1CCN(S(=O)(=O)c2ccc(OC)cc2)CC1"
label_class = 0

[[record]]
compound = "CCOC(=O)CCNC(=O)N1CCCC(C(=O)c2ccccc2SC)C1 (configuration not stated)"
label_class = 0

[[record]]
compound = "Cc1ccc(NCc2n[nH]c(=S)n2-c2ccccc2)cc1Cl"
label_class = 0

[[record]]
compound = "O=C(CN1CCCCCC1)N1c2ccccc2Sc2ccc(C(F)(F)F)cc21"
label_class = 0

[[record]]
compound = "Cc1ccc(NC(=O)/C(=C/c2ccc([N+](=O)[O-])cc2)NC(=O)c2ccccc2)cc1"
label_class = 0

[[record]]
compound = "N=C1C(=O)OCC1c1ccccc1NC(=O)CN1CCCCC1 (configuration not stated)"
label_class = 0

[[record]]
compound = "Cc1cccc(C)c1NC(=O)Nc1ccccc1-n1ccnc1"
label_class = 0


----------
Measured response (percent of control binding), listed per entry for reference.
- system: Guanine nucleotide-binding protein G(o) subunit alpha (Homo sapiens)
- method_summary: compounds changing RGS8 association with Galphao – biochemical, multiplexed bead flow cytometry, primary screen (AID 1423);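 further: Galphao activated as the GDP aluminium fluoride complex binding bead-coupled RGS8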
- condition_notes: at 10 µM, actives lie on both sides
Among all 220,000 compounds or so, about 750 (0.34%) were called active. This is one part of a sample in which actives are shown more often than they occur.
recorded_endpoint: response (percent of control binding) (%)

[[record]]
compound = "Cc1ccc(N2C(=O)C3C(c4ccccc4)(C2=O)C3(c2ccccc2)c2ccccc2)cc1 (stereo not given)"
system = "Guanine nucleotide-binding protein G(o) subunit alpha (Homo sapiens)"
observed_result = 23.3

[[record]]
compound = "O=C1CCC(=O)N(O)CCCCCNC(=O)CCC(=O)N(O)CCCCCNC(=O)CCC(=O)N(O)CCCCCN1"
system = "Guanine nucleotide-binding protein G(o) subunit alpha (Homo sapiens)"
observed_result = 55.9

[[record]]
compound = "COc1ccc(C2C(C#N)=C(N)N(c3ncn[nH]3)C3=C2C(=O)CCC3)cc1 (stereo not given)"
system = "Guanine nucleotide-binding protein G(o) subunit alpha (Homo sapiens)"
observed_result = 100

[[record]]
compound = "Cc1cc(NC(=O)COc2ccc(Cl)cc2Cl)n(CCC#N)n1"
system = "Guanine nucleotide-binding protein G(o) subunit alpha (Homo sapiens)"
observed_result = 99.5

[[record]]
compound = "Cc1ccc(N2C(=O)C3CC3C2=O)cc1 (stereo not given)"
system = "Guanine nucleotide-binding protein G(o) subunit alpha (Homo sapiens)"
observed_result = 101

